FYI, the data here is from ChEMBL document CHEMBL1143684.

target.or.test.system: Trace amine-associated receptor 1 (Rattus norvegicus)
assay.notes: Efficacy at rat TAAR1 expressed in HEK293 cells assessed as stimulation of cAMP production at 10 uM relative to 3-iodothyronamine
Assay type: functional, cell-based
measurement.label: Emax (%)
Number only, in %; omit the unit.

**Q:** Which Emax is reported for this compound? NCC(c1ccccc1)c1ccc(Oc2ccccc2)cc1 (centres undefined)
**A:** 103

**Q:** Which Emax is reported for this compound? `NCCc1ccc(Oc2ccccc2)c2ccccc12`
**A:** 113

**Q:** Which Emax is reported for this compound? NCC(c1ccccc1)c1ccc(Oc2ccccc2)c2ccccc12 (centres undefined)
**A:** 100

**Q:** Which Emax is reported for this compound? NCC(Cc1ccccc1)c1ccc(Oc2ccccc2)cc1 (centres undefined)
**A:** 92

**Q:** Which Emax is reported for this compound? NCC(c1ccccc1)c1ccc(O)c2ccccc12 (centres undefined)
**A:** 89

**Q:** Which Emax is reported for this compound? NCC(C#Cc1ccccc1)c1ccc(Oc2ccccc2)cc1 (centres undefined)
**A:** 119

**Q:** Which Emax is reported for this compound? C#CC(CN)c1ccc(Oc2ccccc2)cc1 (centres undefined)
**A:** 105

**Q:** Which Emax is reported for this compound? `CN(C)CCCNC(=O)c1ccc(Oc2ccccc2)cc1`
**A:** 2

**Q:** Which Emax is reported for this compound? CC(CN)c1ccc(Oc2ccccc2)cc1 (centres undefined)
**A:** 94

**Q:** Which Emax is reported for this compound? `NCCc1ccc(Oc2ccccc2)cc1`
**A:** 93

**Q:** Which Emax is reported for this compound? `CC(C)(CN)c1ccc(Oc2ccccc2)cc1`
**A:** 13

**Q:** Which Emax is reported for this compound? `NCCc1ccc(Oc2ccc(O)cc2)c(I)c1`
**A:** 100

**Q:** Which Emax is reported for this compound? NCC(c1ccccc1)c1cccc(Oc2ccccc2)c1 (centres undefined)
**A:** 131

**Q:** Which Emax is reported for this compound? COc1ccc(C(CN)c2ccccc2)c2ccccc12 (centres undefined)
**A:** 71

* * *

target.or.test.system: Trace amine-associated receptor 1 (Mus musculus)
Sequence (Q923Y8 whole entry): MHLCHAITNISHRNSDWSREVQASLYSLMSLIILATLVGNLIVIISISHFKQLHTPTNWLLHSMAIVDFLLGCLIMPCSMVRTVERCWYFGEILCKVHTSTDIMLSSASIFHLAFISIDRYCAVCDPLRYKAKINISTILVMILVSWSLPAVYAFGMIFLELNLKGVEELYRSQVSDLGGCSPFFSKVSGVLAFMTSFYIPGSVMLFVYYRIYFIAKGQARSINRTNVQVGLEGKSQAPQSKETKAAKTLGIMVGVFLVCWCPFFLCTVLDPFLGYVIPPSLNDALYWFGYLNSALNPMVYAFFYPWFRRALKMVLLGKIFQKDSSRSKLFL
assay.notes: Activity at mouse TAAR1 expressed in HEK293 cells assessed as cAMP production
measurement.label: EC50 (nM)
Number only, in nM; omit the unit.

**Q:** Which EC50 is reported for this compound? `NCCc1ccc(Oc2ccccc2)c2ccccc12`
**A:** 101

**Q:** Which EC50 is reported for this compound? `NCCc1ccc(Oc2ccc(O)cc2)c(I)c1`
**A:** 314

**Q:** Which EC50 is reported for this compound? C#CC(CN)c1ccc(Oc2ccccc2)cc1 (configuration not stated)
**A:** 929

* * *

Record form. Attribute: EC50. Fill in for each entry.
target.or.test.system: Trace amine-associated receptor 1 (Rattus norvegicus, UniProt Q923Y9)
Sequence (Q923Y9 whole entry): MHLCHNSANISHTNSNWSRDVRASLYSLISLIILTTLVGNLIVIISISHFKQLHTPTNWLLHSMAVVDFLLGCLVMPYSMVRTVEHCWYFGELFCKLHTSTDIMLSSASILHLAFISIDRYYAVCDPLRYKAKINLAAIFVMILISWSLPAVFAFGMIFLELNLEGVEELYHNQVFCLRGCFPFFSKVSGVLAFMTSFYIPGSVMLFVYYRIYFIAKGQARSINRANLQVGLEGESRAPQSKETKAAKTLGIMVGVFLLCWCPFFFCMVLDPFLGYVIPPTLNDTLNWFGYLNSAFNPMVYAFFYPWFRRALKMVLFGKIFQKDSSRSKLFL
assay.notes: Activity at rat TAAR1 expressed in HEK293 cells assessed as cAMP production

**Q:** Lab request: please report EC50 under test system Trace amine-associated receptor 1 (Rattus norvegicus, UniProt Q923Y9) for C#CC(CN)c1ccc(Oc2ccccc2)cc1 (centres undefined)
**A:** 0.041 µM

**Q:** Lab request: please report EC50 under test system Trace amine-associated receptor 1 (Rattus norvegicus, UniProt Q923Y9) for `CN(C)CCCNC(=O)c1ccc(Oc2ccccc2)cc1`
**A:** > 1 µM

**Q:** Lab request: please report EC50 under test system Trace amine-associated receptor 1 (Rattus norvegicus, UniProt Q923Y9) for NCC(c1ccccc1)c1ccc(Oc2ccccc2)cc1 (centres undefined)
**A:** 0.028 µM

**Q:** Lab request: please report EC50 under test system Trace amine-associated receptor 1 (Rattus norvegicus, UniProt Q923Y9) for `NCCc1ccc(Oc2ccccc2)cc1`
**A:** 0.063 µM
